This listing pairs molecules with measured viability at 48 h, 10 µM.
# protocolDetails: in vitro
# Parameters: species or system CCD841, HEK293
# conditionContext: human, hb2 cells, read-out: HB-2 Cells Viability (%)

molecule	viability at 48 h, 10 µM (%)
O=C(CCl)Nc1nc2ccc(Br)cc2s1 [PCM-0102126]	83.6
O=C(CCl)NC(=O)c1cccs1 [PCM-0102222]	110
COc1cccc(C2CCCN2C(=O)CCl)c1 (racemic) [PCM-0102716]	7.6
Cl.O=C(CCl)N1CCN(c2cccc(C(F)(F)F)c2)CC1 [PCM-0102239]	4.2
C=CC(=O)N1CCOc2ccccc21 [PCM-0102629]	80.9
O=C(CCl)Nc1nc2c(F)c(F)c(F)cc2s1 [PCM-0102144]	90.9
Cc1cc(SC#N)ccc1NC(=O)CCl [PCM-0102508]	14.1
CNC(=O)C1CCN(C(=O)CCl)CC1 [PCM-0102815]	92.2
Cc1ccc(NC(=O)CCl)c(Cl)c1 [PCM-0102408]	35.9
O=C(CCl)Nc1ccc(Cl)cc1Cl [PCM-0102914]	52.5
O=C(CCl)N(C1CCCC1)C1CCS(=O)(=O)C1 (centres unmarked) [PCM-0102313]	64.5
C=CC(=O)N1CCc2c([nH]c3ccccc23)C1 [PCM-0102650]	100
CS(=O)(=O)c1cccc(NC(=O)CCl)c1 [PCM-0102407]	26.4
C=CC(=O)N1CC(S(=O)(=O)CC)C1 [PCM-0102442]	94.8
Cc1sc(NC(=O)CCl)c(C)c1C [PCM-0102968]	16.1
O=C(CCl)N1CCN(S(=O)(=O)c2ccccc2)CC1 [PCM-0102468]	12.6
CC(=O)Nc1ccc(NC(=O)CCl)c(C(F)(F)F)c1 [PCM-0102895]	97.1
C=CC(=O)N1CCCN(c2ccc(-c3ccccc3)nn2)CC1 [PCM-0102964]	102
O=C(CCl)NC(=O)NC1CCS(=O)(=O)C1 (centres unmarked) [PCM-0102100]	101
COC(=O)C1Cc2ccccc2CN1C(=O)CCl (centres unmarked) [PCM-0102841]	96.4
Cl.O=C(CCl)Nc1ccc(Cl)cn1 [PCM-0103036]	98.5
CC(NC(=O)CCl)C1CC1 (centres unmarked) [PCM-0102157]	87.6
Cc1cc(C)c(NC(=O)CCl)c(Cl)c1 [PCM-0102994]	94

###

# protocolDetails: in vitro
# Set-up: species or system CCD841, HEK293
# conditionContext: human, hb2 cells, read-out: HB-2 Cells Viability (%)
Measured viability at 48 h, 10 µM, listed per entry for reference.

molecule	viability at 48 h, 10 µM, %
O=C(CCl)Nc1ccc2c(c1)OC1(CCCCC1)O2	5.9
Cc1nc(-c2cccc(NC(=O)CCl)c2)cs1	5.4
COC(=O)c1cc(NC(=O)CCl)cn1C	54.5
Cc1nc(-c2ccc(C)c(NC(=O)CCl)c2)n[nH]1	57
O=C(CCl)N1CCN(C(=O)C2CC2)CC1	83.8
CCC1c2ccsc2CCN1C(=O)CCl (centres unmarked)	13.5
Cc1cc(NC(=O)CCl)n(C)n1	64.5
CC(C)(C)N(Cc1cccc(F)c1)C(=O)CCl	67.5
O=C(CCl)NCc1ccccc1F	86.4
C=CC(=O)N1CCC2(CC1)CNC(=O)C2	100
O=C(CCl)Nc1c(F)cc(F)cc1Br	79.5
O=C(CCl)NC1CCOc2ccccc21 (centres unmarked)	92.9
C=CC(=O)Nc1ccc(Br)cc1	91.3
N#Cc1ccccc1S(=O)(=O)N1CCN(C(=O)CCl)CC1	11.2
C=CC(=O)N1CCOCC1c1cccn1C (centres unmarked)	102
O=C(CCl)N=c1sccn1Cc1ccccc1Cl	27.2
Cl.O=C(CCl)N1CCN(Cc2ccc(Br)s2)CC1	8.8
O=C(CCl)Nc1cccc(Cl)c1N1CCOCC1	51.2
CC1CCCN(C(=O)CCl)C1 (centres unmarked)	102
Cc1cccc(C(C)C)c1NC(=O)CCl	102
O=C(CCl)Nc1ccc2[nH]c(=O)[nH]c2c1	77.3
Cc1ccc(CNC(=O)CCl)cc1F	86.6
O=C(CCl)Nc1ccc(F)cc1Cl	76.9

###

# protocolDetails: in vitro
# Set-up: species or system HB2, CCD841
# conditionContext: human, hek293 cells
// reported viability at 48 h, 10 µM per item
observable: viability at 48 h, 10 µM

compound	observable	result
COc1ccc(C(=O)NC(=O)CCl)cc1 [PCM-0102454]	viability at 48 h, 10 µM	96.7%
O=C(CCl)Nc1ccc(C(=O)O)cc1 [PCM-0102400]	viability at 48 h, 10 µM	112%
Cl.O=C(CCl)N1CCN(Cc2ccco2)CC1 [PCM-0103006]	viability at 48 h, 10 µM	65.7%
Cl.O=C(CCl)N1CCN(c2cccc(C(F)(F)F)c2)CC1 [PCM-0102239]	viability at 48 h, 10 µM	19.6%
O=C(CCl)NC(=O)NC1CCS(=O)(=O)C1 (centres unmarked) [PCM-0102100]	viability at 48 h, 10 µM	99.5%
C=CC(=O)N1CCCC(c2ncc3n2CCCC3)C1 (centres unmarked) [PCM-0103042]	viability at 48 h, 10 µM	97.1%
O=C(CCl)NC(=O)NC1CCCCC1 [PCM-0102692]	viability at 48 h, 10 µM	62.3%
CC1(C)C(=O)Nc2ccccc2N1C(=O)CCl [PCM-0102546]	viability at 48 h, 10 µM	57.2%
CC(C)N(C(=O)CCl)c1ccccc1 [PCM-0102272]	viability at 48 h, 10 µM	16%
Cc1cc(NC(=O)CCl)ccc1N1CCCC1 [PCM-0102175]	viability at 48 h, 10 µM	2.9%
NC(=O)C1CCCCN1C(=O)CCl (centres unmarked) [PCM-0102203]	viability at 48 h, 10 µM	50.7%

###

# experimentalSystem: OTUB2 (OTUB2A) (Homo sapiens)
# Construct: full length residues 1-234, E. coli BL21(DE3)-R3, His tag removed by TEV, construct 27312 Da
# Sequence (Q96DC9 whole entry, the tested form may be a part): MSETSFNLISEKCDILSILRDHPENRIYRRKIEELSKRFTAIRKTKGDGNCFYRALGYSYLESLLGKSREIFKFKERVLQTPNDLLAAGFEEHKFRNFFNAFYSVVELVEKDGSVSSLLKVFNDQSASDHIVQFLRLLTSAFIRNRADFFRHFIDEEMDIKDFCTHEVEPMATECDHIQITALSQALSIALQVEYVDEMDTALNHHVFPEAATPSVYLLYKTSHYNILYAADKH
# Parameters: Intact protein LC/MS covalent labelling, fragments in pools of five, 200 uM each, 4 °C
# conditionContext: 24 h, 4 °C, pool of five; 200 µM; covalent

compound	OTUB2
COc1cccc(NC(=O)CCl)c1 [PCM-0102410]	0
C=CC(=O)NC1(C2CC2)CCOCC1 [PCM-0102450]	0
O=C(CCl)Nc1nc(C2CC2)no1 [PCM-0103076]	0.11
C=CC(=O)N1CC2CC3CC2C1C3OC (stereo not drawn) [PCM-0102649]	0.15
CC(NC(=O)CCl)c1cccc2ccccc12 (stereo not drawn) [PCM-0102275]	0.73
Cc1cccc(C(=O)NNC(=O)CCl)c1 [PCM-0102737]	0.54
O=C(CCl)NCC1CCC1 [PCM-0103065]	0
O=C(CCl)NCc1ccccc1 [PCM-0102538]	0.28
C=CC(=O)N1CCC(C(=O)[O-])CC1.[Na+] [PCM-0102613]	0
C=CC(=O)NC1CCCn2nc(C)nc21 (stereo not drawn) [PCM-0103083]	0
O=C(CCl)N1CCN(c2ccccc2Cl)CC1 [PCM-0102297]	0
O=C(CCl)N1N=C(c2ccco2)CC1c1ccco1 (stereo not drawn) [PCM-0102380]	0
O=C(CCl)N1CC=C(c2ccccc2)CC1 [PCM-0103038]	0.09
O=C(CCl)Nc1ccc(Br)cc1 [PCM-0102992]	0.08
C=CC(=O)Nc1cccc(F)c1 [PCM-0102922]	0
O=C(CCl)Nc1ccc([N+](=O)[O-])cc1C(F)(F)F [PCM-0102406]	0
COC(=O)C1CCN(C(=O)CCl)CC1 [PCM-0102978]	0
NS(=O)(=O)c1cccc(NC(=O)CCl)c1 [PCM-0102162]	0.58
C=CC(=O)NCc1cc(F)c(C(F)(F)F)cc1F [PCM-0103078]	0
C=CC(=O)NCC1CCCc2sc(C)nc21 (stereo not drawn) [PCM-0102952]	0
CCCNC(=O)NC(=O)CCl [PCM-0102702]	0.22
Cl.O=C(CCl)N1CCN(Cc2cccs2)CC1 [PCM-0102243]	0
COCC(=O)NNC(=O)CCl [PCM-0103070]	0
C=CC(=O)N1CCC(c2noc(C3CC3)n2)CC1 [PCM-0102810]	0

###

# experimentalSystem: BSA (Bos taurus, UniProt P02769)
# Construct: gene ALB
# Sequence (P02769 whole entry): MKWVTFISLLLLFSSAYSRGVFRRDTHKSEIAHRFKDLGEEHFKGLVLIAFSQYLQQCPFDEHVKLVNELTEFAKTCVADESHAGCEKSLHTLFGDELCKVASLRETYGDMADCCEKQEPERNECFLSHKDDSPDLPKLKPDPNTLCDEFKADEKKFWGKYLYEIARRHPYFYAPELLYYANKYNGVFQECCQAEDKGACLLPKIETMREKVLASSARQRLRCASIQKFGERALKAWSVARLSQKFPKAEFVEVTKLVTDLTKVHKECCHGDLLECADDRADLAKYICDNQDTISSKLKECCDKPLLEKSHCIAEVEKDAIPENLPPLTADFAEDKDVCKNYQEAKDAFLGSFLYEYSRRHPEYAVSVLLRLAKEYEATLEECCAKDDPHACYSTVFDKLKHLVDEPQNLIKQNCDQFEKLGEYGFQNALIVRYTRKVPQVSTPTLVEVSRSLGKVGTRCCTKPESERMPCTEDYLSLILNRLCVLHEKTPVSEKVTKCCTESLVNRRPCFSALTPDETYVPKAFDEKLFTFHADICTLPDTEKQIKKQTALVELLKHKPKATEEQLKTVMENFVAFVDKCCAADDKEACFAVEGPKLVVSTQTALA
# Set-up: Intact protein LC/MS covalent labelling, fragments in pools of five, 200 uM each, 4 °C
# conditionContext: 24 h, 4 °C, pool of five; 200 µM; covalent

molecule	BSA
CN(C(=O)CCl)c1nccs1	0
CC1CCc2ccccc2N1C(=O)CCl (stereo not shown)	0
Cc1cc([N+](=O)[O-])ccc1NC(=O)CCl	0
CC(=O)c1cccc(NC(=O)CCl)c1	0
Cc1ccc(C2=NN(C(=O)CCl)C(c3ccco3)C2)o1 (stereo not shown)	0
C=CC(=O)N1Cc2c(OC)ccc(OC)c2C(O)C1 (stereo not shown)	0.1
Cc1ccsc1CNC(=O)CCl	0.21
C=CC(=O)Nc1cccc(C#N)c1	0
O=C(CCl)N=c1sccn1Cc1cccc2ccccc12	0
O=C(CCl)NCc1ccccc1	0
Cl.O=C(CCl)N1CCN(Cc2cccc3ccccc23)CC1	0
Cc1nc(-c2ccc(C)c(NC(=O)CCl)c2)n[nH]1	0
O=C(CCl)N1CCC(c2ccccc2)=N1	0
O=C(CCl)N1CCCc2cccc(F)c21	0
CCN(C(=O)CCl)c1nc2ccccc2s1	0
O=C(CCl)Nc1cc(C(F)(F)F)ccc1-n1cncn1	0
O=C(CCl)Nc1ccc(F)c([N+](=O)[O-])c1	0
CC1(C)C2CCC1(C)C(NC(=O)CCl)C2 (stereo not shown)	0.12
CS(C)(=O)=NC(=O)CCl	0
CC(C)(C)C(=O)NNC(=O)CCl	0
C=CC(=O)N1CCC(C(=O)N(C)c2ccccc2)C1 (stereo not shown)	0
CN(Cc1cccc(Cl)c1)C(=O)CCl	0
Cc1cc(NC(=O)CCl)no1	0
CN(C)S(=O)(=O)c1ccc2c(c1)CCCN2C(=O)CCl	0
O=C(CCl)NC(=O)c1ccccc1	0
O=C(CCl)NC1(c2ccccc2)CCC1	0
CN(CC1COc2ccccc2O1)C(=O)CCl (stereo not shown)	0
CNC(=O)NC(=O)CCl	0
CN(Cc1ccc(Cl)s1)C(=O)CCl	0
C=CC(=O)N1CCn2nc(C)nc2C1	0
C=CC(=O)N1CCC(S(=O)(=O)NC)C1 (stereo not shown)	0
C=CC(=O)N1CC(C)(C)C1c1cccs1 (stereo not shown)	0
C=CC(=O)N1CC(c2ccccc2)C2COCCC21 (stereo not shown)	0
CC(NC(=O)CCl)c1ccc2ccccc2c1 (stereo not shown)	0
C=CC(=O)N1CCCc2ccccc21	0
O=C(CCl)N1CCN(S(=O)(=O)c2cccs2)CC1	0
C=CC(=O)Nc1cc(F)cc(F)c1	0
O=C(CCl)NCc1ccc2c(c1)OCO2	0
CC(=O)c1cc2c(cc1NC(=O)CCl)OCO2	0
O=C(CCl)Nc1cccc(Cl)c1N1CCOCC1	0
CN(CC1CC1)C(=O)CCl	0
C=CC(=O)N1CCC2(CC1)CNC(=O)C2	0
C=CC(=O)N1CCC(N2CCS(=O)(=O)CC2)CC1	0
CCOC(=O)C1CCCN(C(=O)CCl)C1 (stereo not shown)	0
Cc1ccc(CN2CCCN(C(=O)CCl)CC2)cc1.Cl	0
O=C(CCl)NNC(=O)c1cc2c(s1)CCCC2	0
